- Test system: A431 skin cancer cells
- assay_name: MTT in vitro cytotoxicity assay, A431
- Format: cell-based
- conditions: 72 h drug exposure, n = 3, read-out: GI50 ± SEM, A431
- Description: The in vitro cytotoxicity assays were undertaken at Calvary Mater Hospital, Waratah, NSW, Australia, following a method previously published in the literature. A stock solution for each compound was prepared in DMSO (30 mM) and stored at −20 °C. […] The growth inhibitory effects were evaluated after 72 h drug exposure, using the MTT (3-(4,5-dimethylthiazol-2-yl)-2,5-diphenyltetrazolium bromide) assay, with the absorbance read at 540 nm. […]
I'd appreciate it if you could supply log10 of GI50 values for the items below.
The common logarithm of GI50 in nM is what is listed.

Noted for COc1cc[n+]2c3c1ccc1c(OC)cc[n+](c13)[Pt-2]21([OH])([OH])[NH2+][C@H]2CCCC[C@@H]2[NH2+]1.O=[N+]([O-])[O-].O=[N+]([O-])[O-] : its log10 of GI50 reads 3.52

Noted for O=C1N[C@H]2[C@H](CS[C@H]2CCCCC(=O)[O][Pt-2]23([OH])([NH2+][C@H]4CCCC[C@@H]4[NH2+]2)[n+]2cccc4ccc5ccc[n+]3c5c42)N1.O=[N+]([O-])[O-].O=[N+]([O-])[O-] : its log10 of GI50 reads 2.78

Noted for Cc1cc2ccc[n+]3c2c2c1ccc[n+]2[Pt-2]31([OH])([O]C(=O)CCCC[C@@H]2SC[C@@H]3NC(=O)N[C@@H]32)[NH2+][C@H]2CCCC[C@@H]2[NH2+]1.O=[N+]([O-])[O-].O=[N+]([O-])[O-] : its log10 of GI50 reads 2.04

Noted for Cc1cc2ccc[n+]3c2c2c1ccc[n+]2[Pt-2]31([OH])([OH])[NH2+][C@H]2CCCC[C@@H]2[NH2+]1.O=[N+]([O-])[O-].O=[N+]([O-])[O-] : its log10 of GI50 reads 2.38

Noted for Cc1cc2ccc[n+]3c2c2c1ccc[n+]2[Pt-2]31[NH2+][C@H]2CCCC[C@@H]2[NH2+]1.[Cl-].[Cl-] : its log10 of GI50 reads 2.08

---

I'd appreciate it if you could supply Resistance factor (RF) values for the items below.
- Tested on: ADDP (subclone of A2780) versus A2780 ovarian cancer cell lines
- assay_name: Resistance factor, GI50 in ADDP/GI50 in A2780
- Format: cell-based
Answer with the value's number alone.

Noted for O=[N+]([O-])[O-].O=[N+]([O-])[O-].[OH][Pt-2]12([OH])([NH2+][C@H]3CCCC[C@@H]3[NH2+]1)[n+]1cccc3ccc4ccc[n+]2c4c31 [PHENSS(IV)] : its Resistance factor (RF) reads 1.625

Noted for COc1cc[n+]2c3c1ccc1c(OC)cc[n+](c13)[Pt-2]21([OH])([OH])[NH2+][C@H]2CCCC[C@@H]2[NH2+]1.O=[N+]([O-])[O-].O=[N+]([O-])[O-] [47OMESS(IV)] : its Resistance factor (RF) reads 0.765

Noted for O=C1[O][Pt]2([NH][C@@H]3CCCC[C@H]3[NH]2)[O]C1=O [Oxaliplatin, oxaliplatin] : its Resistance factor (RF) reads 5.138

---

I'd appreciate it if you could supply GI50 values for the items below.
- Tested on: A2780 ovarian cancer cells
- assay_name: MTT in vitro cytotoxicity assay, A2780
- Format: cell-based
- conditions: 72 h drug exposure, n = 3, read-out: GI50 ± SEM, A2780
Respond with the bare value in nM.

Noted for Cc1cc2ccc[n+]3c2c2c1ccc[n+]2[Pt-2]31([OH])([O]C(=O)CCCC[C@@H]2SC[C@@H]3NC(=O)N[C@@H]32)[NH2+][C@H]2CCCC[C@@H]2[NH2+]1.O=[N+]([O-])[O-].O=[N+]([O-])[O-] : its GI50 reads 34

Noted for COc1cc[n+]2c3c1ccc1c(OC)cc[n+](c13)[Pt-2]21([OH])([O]C(=O)CCCC[C@@H]2SC[C@@H]3NC(=O)N[C@@H]32)[NH2+][C@H]2CCCC[C@@H]2[NH2+]1.O=[N+]([O-])[O-].O=[N+]([O-])[O-] : its GI50 reads 370

Noted for Cc1cc2ccc[n+]3c2c2c1ccc[n+]2[Pt-2]31[NH2+][C@H]2CCCC[C@@H]2[NH2+]1.[Cl-].[Cl-] : its GI50 reads 61
